- Measurement Protocol: LD50 in the mouse
- Format: in vivo
- Run Parameters: in vivo, sc; mouse
Property Name: LD50 (mg/kg)
Numeric answer only, unit mg/kg assumed.

Measured LD50, COc1cc(OC)cc(C(=O)O[C@H]2C[C@H]3CC[C@@H](C2)N3C)c1 [tropyl 3,5-dimethoxybenzoate] : 17

----------
- Tested on: rat uterus
- Measurement Protocol: Inhibition of standard response to oxytocin, rat uterus
- Type: cell-based
- Run Parameters: agonist oxytocin, read-out: Concentration to inhibit standard response to stimulants by 50% (IC50)
Recorded IC50, one value per entry.

>>> reported_value("CN1[C@@H]2CC[C@H]1C[C@@H](OC(=O)c1cc(Cl)cc(Cl)c1)C2 [tropyl 3,5-dichlorobenzoate]")
"> 50.9 µM"

# next compound below
Measured IC50, COc1cc(OC)cc(C(=O)O[C@H]2C[C@H]3CC[C@@H](C2)N3C)c1 [tropyl 3,5-dimethoxybenzoate] : > 52.5 µM

----------
- Tested on: rat fundus
- Measurement Protocol: Inhibition of standard response to acetylcholine, rat fundus
- Assay type: cell-based
- Run Parameters: agonist acetylcholine, read-out: Concentration to inhibit standard response to stimulants by 50% (IC50)
Recorded pIC50, one value per entry.
Kindly note that pIC50 refers to -log10 of the concentration in mol/L and answer with the value alone.

>>> reported_value("CN1[C@@H]2CC[C@H]1C[C@@H](OC(=O)c1cc(Cl)cc(Cl)c1)C2 [tropyl 3,5-dichlorobenzoate]")
4.91

# next compound below
Measured pIC50, COc1cc(OC)cc(C(=O)O[C@H]2C[C@H]3CC[C@@H](C2)N3C)c1 [tropyl 3,5-dimethoxybenzoate] : 4.88

----------
Recorded LD50, one value per entry.
- Measurement Protocol: LD50 in the mouse
- Format: in vivo
- Run Parameters: in vivo, ip; mouse
Numeric answer only, unit mg/kg assumed.

>>> reported_value("COc1cc(OC)cc(C(=O)O[C@H]2C[C@H]3CC[C@@H](C2)N3C)c1 [tropyl 3,5-dimethoxybenzoate]")
28
>>> reported_value("CN1[C@@H]2CC[C@H]1C[C@@H](OC(=O)c1cc(Cl)cc(Cl)c1)C2 [tropyl 3,5-dichlorobenzoate]")
32

# next molecule below
Measured LD50, Cc1cc(C)cc(C(=O)O[C@H]2C[C@H]3CC[C@@H](C2)N3C)c1 [tropyl 3,5-dimethylbenzoate] : 47

----------
Recorded Kb, one value per entry.
- Assayed System: 5-HT M-receptor (Oryctolagus cuniculus, UniProt A0A5F9C9J3)
- Construct: determining their pA2 values in the isolated rabbit heart; from tissue; host or cells: isolated rabbit heart (receptor on the cardiac neurones)
- Sequence (A0A5F9C9J3 1-494): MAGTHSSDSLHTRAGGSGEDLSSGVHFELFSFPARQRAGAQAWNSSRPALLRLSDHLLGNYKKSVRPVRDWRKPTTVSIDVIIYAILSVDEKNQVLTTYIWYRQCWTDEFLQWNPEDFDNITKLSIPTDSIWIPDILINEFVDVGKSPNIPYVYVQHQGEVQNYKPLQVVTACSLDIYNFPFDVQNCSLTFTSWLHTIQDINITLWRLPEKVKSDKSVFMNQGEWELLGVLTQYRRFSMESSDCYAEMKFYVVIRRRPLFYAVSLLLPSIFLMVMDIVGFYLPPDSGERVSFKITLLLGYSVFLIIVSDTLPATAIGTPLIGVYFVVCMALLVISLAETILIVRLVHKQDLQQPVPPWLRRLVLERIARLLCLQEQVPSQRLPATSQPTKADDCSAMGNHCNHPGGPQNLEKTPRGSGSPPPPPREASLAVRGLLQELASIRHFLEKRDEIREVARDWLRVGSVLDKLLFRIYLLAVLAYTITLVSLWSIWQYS
- Measurement Protocol: pA2 against 5-HT in isolated rabbit heart
- Type: cell-based
- Run Parameters: isolated rabbit heart; negative log of molar concentration of antagonist reducing effect of twice the ED50 of 5-HT to that of the ED50; read-out: pA2 5-HT (converted)
- Description: The activity of the compounds against 5-HT can be assessed by determining their pA2 values in the isolated rabbit heart as described by J. R. Fozard et al, Eur. J. Pharmacol., 59, 195-210 (1979). In the method described, the molar concentration of antagonist which reduces the effects of twice the ED50 of 5-HT to that of the ED50 in the absence of antagonist is determined. The pA2 value is the negative logarithm of said molar concentrations.
Numeric answer only, unit nM assumed.

Solved cases below.
>>> reported_value("COc1cc(OC)cc(C(=O)O[C@H]2C[C@H]3CC[C@@H](C2)N3C)c1 [tropyl 3,5-dimethoxybenzoate]")
3.98
>>> reported_value("COc1ccc(C(=O)O[C@H]2C[C@H]3CC[C@@H](C2)N3C)cc1OC [tropyl 3,4-dimethoxybenzoate, reference compound]")
63.1

# next molecule below
Measured Kb, COc1cc(C(=O)O[C@H]2C[C@H]3CC[C@@H](C2)N3C)cc(OC)c1OC [tropyl 3,4,5-trimethoxybenzoate] : 3.16
